Data provenance: the supplement of paper PMC11451515

Tested on: SEM cells
ASSAY NAME: cell viability relative to DMSO control; higher = less cytotoxic
RUN CONDITIONS: HPLM + 10% dialyzed FBS; 48 h; 1.71 µM
ASSAY METRIC: cell viability (%)
Answer format: numeric, % implied, no suffix.

**Q:** Entry CC1(C)SCCN([S+](=O)([O-])c2ccc(OCC#CCO)cc2)[C@H]1C(=O)NO has what cell viability?
**A:** 89.5

**Q:** What value of cell viability has been recorded for this entry: CCNC(=O)Nc1ccc(Oc2ncnc(N)c2/C=N/OC)cc1Cl
**A:** 73.5

**Q:** Fill in: cell viability of CCC(CCCC)COC(=O)C(\C#N)=C(\c1ccccc1)c2ccccc2 (stereo not drawn) is ___
**A:** 90.6

**Q:** Please give the measured cell viability for this compound: CN(C)CCCC1(c2ccc(F)cc2)OCc2cc(C#N)ccc21 (stereo not drawn)
**A:** 96.7

**Q:** Requested read-out: cell viability. Entry: CO[C@H]1/C=C/O[C@@]2(C)Oc3c(C)c(O)c4c(c3C2=O)C2=NC3(CCN(CC(C)C)CC3)NC2=C(NC(=O)/C(C)=C/C=C/[C@H](C)[C@H](O)[C@@H](C)[C@@H](O)[C@@H](C)[C@H](OC(C)=O)[C@@H]1C)C4=O
**A:** 17.8

**Q:** Can you share its cell viability? I mean this compound: O=C(CN1C(=O)C2(CCCC2)NC[C@H]1c1cc(F)cc(F)c1)Nc1ccc2c(c1)C[C@@]1(C2)C(=O)Nc2ncccc21
**A:** 140

**Q:** Please report the recorded cell viability for CNC(=O)c1ccc2c(c1)NC(=O)/C2=C(\Nc1cccc(CN(C)C)c1)c1ccccc1 .
**A:** 57.7

**Q:** # get_value(readout='cell viability', item= CCCCCNC(=N)N/N=C/c1c[nH]c2ccc(OC)cc12 )
**A:** 124

###

Provide the reported cell viability of each item.
Test system: NOMO1
ASSAY NAME: cell viability relative to DMSO control; higher = less cytotoxic
RUN CONDITIONS: RPMI 5 mM glucose + 10% dialyzed FBS; 48 h; 5.12 µM
Give a bare numeral; the unit % is implied.

**Q:** Fill in the blank: the reported cell viability of Cc1nc(-c2ccc(OCC(C)C)c(C#N)c2)sc1C(=O)O is ____.
**A:** 125

**Q:** # cell viability lookup, item OC[C@H]1O[C@H](C[C@@H]1O)N2/C=C(C(=O)NC2=O)/C(F)(F)F
**A:** 67.7

**Q:** Requested read-out: cell viability. Entry: COc1ccccc1[C@H](c1cccc2ccccc12)[C@@](C)(C#N)C(=O)N1CCC(c2cccc(C(F)(F)F)c2)CC1
**A:** 83.1

**Q:** Give the measured cell viability of CCC(C)CCCCC(=O)N[C@@H](CCN)C(=O)NC(C(=O)N[C@H](CCN)C(=O)N[C@@H]1CCNC(=O)C([C@@H](C)O)NC(=O)[C@@H](CCN)NC(=O)[C@@H](CCN)NC(=O)[C@@H](CC(C)C)NC(=O)[C@H](Cc2ccccc2)NC(=O)[C@H](CCN)NC1=O)[C@@H](C)O (some centres not stated) .
**A:** 124

**Q:** State the recorded cell viability for this entry: CC(C)c1onc(-c2c(Cl)cccc2Cl)c1COc1ccc(/C=C/c2cccc(C(=O)O)c2)c(Cl)c1
**A:** 128

**Q:** Entry Cc1c(N)nc([C@H](CC(N)=O)NC[C@@H](N)C(N)=O)nc1C(=O)N[C@H](C(=O)N[C@@H](C)[C@H](O)[C@@H](C)C(=O)N[C@@H](C(=O)NCCc1nc(-c2nc(C(=O)NCCC[S+](C)C)cs2)cs1)[C@@H](C)O)C(O[C@H]1O[C@H](CO)[C@H](O)[C@@H](O)[C@H]1O[C@H]1O[C@H](CO)[C@@H](O)[C@H](OC(N)=O)[C@@H]1O)c1c[nH]cn1 (some centres not stated) : reported cell viability = ?
**A:** 66

**Q:** Which cell viability reading was recorded for the molecule C=CC(=O)Nc1cccc(Sc2nc(Nc3ccc(N4CCN(C)CC4)cc3)ncc2Cl)c1 ?
**A:** 107

###

System: NOMO1
ASSAY NAME: AUC of viability dose-response curve (% viability x log10 dose units); higher = less sensitive
RUN CONDITIONS: HPLM + 10% dialyzed FBS; 48 h
For each record, write down the corresponding AUC of viability dose-response curve.
Format: numeric value only, no unit, no commentary.

**Q:** Which measured AUC of viability dose-response curve value corresponds to Nc1ccc(C(=O)Nc2cccc(-c3nc(N4CCOCC4)c4oc5ncccc5c4n3)c2)cn1 ?
**A:** 410

**Q:** What AUC of viability dose-response curve value was documented for this compound, Cc1ccc2nc(NCCN)c3ncc(C)n3c2c1 ?
**A:** 446

**Q:** Param item = C[S+](=O)([O-])Oc1ccc2c(NC(N)=O)c(C(=O)c3ccc(Cl)cc3Cl)oc2c1 ; retrieve measured AUC of viability dose-response curve.
**A:** 449

**Q:** Value lookup for AUC of viability dose-response curve; key = CN(CCOc1ccc(CC2SC(=O)NC2=O)cc1)c1ccccn1 (centres undefined)
**A:** 442

**Q:** Entry OC[C@H]1O[C@H](C[C@@H]1O)N2/C=C(C(=O)NC2=O)/C(F)(F)F has what AUC of viability dose-response curve?
**A:** 356

**Q:** Dear colleague, I am looking for the recorded AUC of viability dose-response curve of the following compound: CNC[C@H](O)[C@@H](O)[C@H](O)[C@H](O)CO
**A:** 432

**Q:** For O=C(/C=C/c1ccc(/C=C/C(=O)Nc2ccc(C3=NCCN3)cc2)cc1)Nc1ccc(C2=NCCN2)cc1 , what is its reported AUC of viability dose-response curve?
**A:** 456

**Q:** Any idea what its AUC of viability dose-response curve is? The compound is Cc1ccc(Nc2cc(-c3cccc(N4C(=O)c5ccccc5C4=O)c3)ncn2)cc1N[S+](C)(=O)[O-]
**A:** 461

**Q:** Param item = O=C(O)CCCCCC(=O)NN=C1CCCC1 ; retrieve measured AUC of viability dose-response curve.
**A:** 433

###

System: SEM cells
ASSAY NAME: cell viability relative to DMSO control; higher = less cytotoxic
RUN CONDITIONS: RPMI 5 mM glucose + 10% dialyzed FBS; 48 h; 0.00234 µM
ASSAY METRIC: cell viability (%)
Please respond with the number in % and leave the unit unwritten.

**Q:** Could you share which cell viability value was measured for C=CC(=O)Nc1cccc(Sc2nc(Nc3ccc(N4CCN(C)CC4)cc3)ncc2Cl)c1 ?
**A:** 98.2

**Q:** Which value of cell viability has been reported for O=C(O)c1ccc(O)c2ncc(N3CCOCC3)cc12 in the records?
**A:** 98.4

**Q:** Recorded cell viability of COC1=CC=C(C=C1)/C2=C(O)/C(=O)C3=C(O)C=C(O)C(=C3O2)CC=C(C)C , please.
**A:** 103

**Q:** Fill in: cell viability of CC(C)C1CCC(C(=O)N[C@H](Cc2ccccc2)C(=O)O)CC1 (some centres not stated) is ___
**A:** 104

**Q:** I am curious: what cell viability value has been reported for OC1=CC=C(C=C1)C/2=C/C3=C(OC2)C=C(O)C=C3 ?
**A:** 107

**Q:** Recorded cell viability of Clc2cccc(Cl)c2\N=C1/NCCN1 , please.
**A:** 116

**Q:** Dear colleague, I am looking for the recorded cell viability of the following molecule: CN1C(=O)c2sccc2N(C)c2nc(Nc3ccc([S+](N)(=O)[O-])cc3)ncc21
**A:** 101

###

System: NOMO1
ASSAY NAME: cell viability relative to DMSO control; higher = less cytotoxic
RUN CONDITIONS: RPMI 5 mM glucose + 10% dialyzed FBS; 48 h; 5.12 µM
ASSAY METRIC: cell viability
I'd appreciate it if you included the unit after the number.

**Q:** Form field: cell viability recorded for O=C(O)CCCCCC(=O)NN=C1CCCC1 with NOMO1 (enter value)
**A:** 118%

**Q:** Param readout= cell viability; system= NOMO1; entry= CC(C(C)N1CC(=O)NC(=O)C1)N1CC(=O)NC(=O)C1 (stereo not given) ; returns value.
**A:** 130%

**Q:** Find the measured cell viability: item CC[C@H]1OC(=O)[C@H](C)[C@@H](O[C@H]2C[C@@](C)(OC)[C@@H](O)[C@H](C)O2)[C@H](C)[C@@H](O[C@@H]2O[C@H](C)C[C@H](N(C)C)[C@H]2O)[C@](C)(OC)C[C@@H](C)C(=O)[C@H](C)[C@@H](O)[C@]1(C)O , target or system NOMO1.
**A:** 84%

**Q:** Request body: readout cell viability, system NOMO1, query Clc2cccc(Cl)c2\N=C1/NCCN1 . Return the value.
**A:** 120%

**Q:** Look up cell viability with NOMO1 for this molecule: CC1(C)SCCN([S+](=O)([O-])c2ccc(OCC#CCO)cc2)[C@H]1C(=O)NO
**A:** 97.3%
